Study target: MRFAP1
Test details: reporter assay of Huesken 2005
Experimental parameters: siRNA
Oligonucleotides are written 5' to 3', each unit as a sugar letter and its base; * is a phosphorothioate linkage, no mark a phosphodiester; rarer units and linkages stand in square brackets, end groups in braces. Plain capitals give the bases only. d = 2'-deoxy (DNA); r = 2'-OH (RNA)
# if value of normalised inhibition (eCFP-eYFP dual reporter) reaches 60%, tag satisfied; if it stays below, tag not satisfied

sense rGrGrArGrArUrGrGrCrGrArArGrArUrGrGrCrCdTdT / antisense rGrGrCrCrArUrCrUrUrCrGrCrCrArUrCrUrCrCdTdG    satisfied
sense rUrCrGrGrArGrGrArUrUrGrUrArUrUrGrUrUrUdTdT / antisense rArArArCrArArUrArCrArArUrCrCrUrCrCrGrAdCdC    not satisfied
sense rGrGrUrCrArArArArCrCrCrUrUrArCrCrArUrGdTdT / antisense rCrArUrGrGrUrArArGrGrGrUrUrUrUrGrArCrCdTdC    satisfied
sense rUrUrGrUrUrCrGrUrCrUrGrUrArCrArArGrUrUdTdT / antisense rArArCrUrUrGrUrArCrArGrArCrGrArArCrArAdGdA    not satisfied
sense rCrUrCrUrGrArGrGrArGrArGrCrGrCrUrCrUrCdTdT / antisense rGrArGrArGrCrGrCrUrCrUrCrCrUrCrArGrArGdGdC    not satisfied
sense rCrUrGrCrCrCrGrUrCrArUrCrCrArCrGrArGrAdTdT / antisense rUrCrUrCrGrUrGrGrArUrGrArCrGrGrGrCrArGdCdA    satisfied

----------
Study target: UBE2S
Test details: reporter assay of Huesken 2005
Experimental parameters: siRNA
Oligonucleotides are written 5' to 3', each unit as a sugar letter and its base; * is a phosphorothioate linkage, no mark a phosphodiester; rarer units and linkages stand in square brackets, end groups in braces. Plain capitals give the bases only. d = 2'-deoxy (DNA); r = 2'-OH (RNA)
Below is a list of entries, each paired with its recorded normalised inhibition (eCFP-eYFP dual reporter) value.
Readout name: normalised inhibition (eCFP-eYFP dual reporter) (%)

sense rGrCrCrUrCrCrCrCrArCrCrCrArArGrGrGrCrUdTdT / antisense rArGrCrCrCrUrUrGrGrGrUrGrGrGrGrArGrGrCdAdG    46.3
sense rGrArGrUrArUrGrCrArGrCrUrCrGrGrGrCrCrCdTdT / antisense rGrGrGrCrCrCrGrArGrCrUrGrCrArUrArCrUrCdCdT    53.4
sense rCrGrUrCrArArCrGrUrGrCrUrCrArArGrArGrGdTdT / antisense rCrCrUrCrUrUrGrArGrCrArCrGrUrUrGrArCrGdCdA    63.1
sense rCrArCrCrCrArArGrGrGrCrUrArCrUrUrCrCrUdTdT / antisense rArGrGrArArGrUrArGrCrCrCrUrUrGrGrGrUrGdGdG    81.5
sense rArGrUrArUrGrCrArGrCrUrCrGrGrGrCrCrCrGdTdT / antisense rCrGrGrGrCrCrCrGrArGrCrUrGrCrArUrArCrUdCdC    49.8
sense rCrGrCrArGrArCrCrCrArCrCrCrGrArUrGrGrCdTdT / antisense rGrCrCrArUrCrGrGrGrUrGrGrGrUrCrUrGrCrGdGdT    51.5

----------
Below is a list of entries, each paired with its recorded normalised inhibition (eCFP-eYFP dual reporter) value.
Study target: UBE2J1
Test details: reporter assay of Huesken 2005
Experimental parameters: siRNA
Oligonucleotides are written 5' to 3', each unit as a sugar letter and its base; * is a phosphorothioate linkage, no mark a phosphodiester; rarer units and linkages stand in square brackets, end groups in braces. Plain capitals give the bases only. d = 2'-deoxy (DNA); r = 2'-OH (RNA)
Readout name: normalised inhibition (eCFP-eYFP dual reporter)

sense rGrArGrUrCrArGrArCrUrUrArArArCrCrArCrUdTdT / antisense rArGrUrGrGrUrUrUrArArGrUrCrUrGrArCrUrCdAdG    88.7%
sense rCrArCrCrArGrCrCrArArGrArGrArCrArArCrCdTdT / antisense rGrGrUrUrGrUrCrUrCrUrUrGrGrCrUrGrGrUrGdGdC    55.8%
sense rCrCrUrUrUrCrArUrCrArArCrCrUrArCrCrCrAdTdT / antisense rUrGrGrGrUrArGrGrUrUrGrArUrGrArArArGrGdAdT    56.2%
sense rCrArArArUrArArGrCrUrUrUrArArGrGrCrArGdTdT / antisense rCrUrGrCrCrUrUrArArArGrCrUrUrArUrUrUrGdCdC    56%
sense rCrUrGrArCrCrArArGrArArGrCrCrArArArGrAdTdT / antisense rUrCrUrUrUrGrGrCrUrUrCrUrUrGrGrUrCrArGdCdT    73.1%
sense rArUrCrCrArGrGrGrCrCrArCrCrArGrCrCrArAdTdT / antisense rUrUrGrGrCrUrGrGrUrGrGrCrCrCrUrGrGrArUdTdA    76%

----------
Study target: UBE2D3
Test details: reporter assay of Huesken 2005
Experimental parameters: siRNA
Oligonucleotides are given in HELM: sugar(base)linkage, 5' to 3'; d 2'-deoxyribose, r ribose, m 2'-O-methylribose, p phosphate. ss, as = sense and antisense strand
Readout name: normalised inhibition (eCFP-eYFP dual reporter) (%)

RNA1{r(C)p.r(C)p.r(U)p.r(U)p.r(C)p.r(A)p.r(A)p.r(A)p.r(C)p.r(C)p.r(A)p.r(C)p.r(C)p.r(U)p.r(A)p.r(A)p.r(G)p.r(G)p.r(U)p.d(T)p.d(T)}|RNA2{r(A)p.r(C)p.r(C)p.r(U)p.r(U)p.r(A)p.r(G)p.r(G)p.r(U)p.r(G)p.r(G)p.r(U)p.r(U)p.r(U)p.r(G)p.r(A)p.r(A)p.r(G)p.r(G)p.d(G)p.d(G)}$$$RNA1{StrandType:ss}|RNA2{StrandType:as}$    94.5
RNA1{r(U)p.r(G)p.r(C)p.r(U)p.r(A)p.r(U)p.r(G)p.r(U)p.r(G)p.r(A)p.r(U)p.r(C)p.r(C)p.r(A)p.r(A)p.r(A)p.r(C)p.r(C)p.r(C)p.d(T)p.d(T)}|RNA2{r(G)p.r(G)p.r(G)p.r(U)p.r(U)p.r(U)p.r(G)p.r(G)p.r(A)p.r(U)p.r(C)p.r(A)p.r(C)p.r(A)p.r(U)p.r(A)p.r(G)p.r(C)p.r(A)p.d(G)p.d(T)}$$$RNA1{StrandType:ss}|RNA2{StrandType:as}$    42.2
RNA1{r(G)p.r(A)p.r(C)p.r(A)p.r(A)p.r(U)p.r(U)p.r(C)p.r(A)p.r(U)p.r(U)p.r(U)p.r(U)p.r(C)p.r(C)p.r(U)p.r(A)p.r(C)p.r(A)p.d(T)p.d(T)}|RNA2{r(U)p.r(G)p.r(U)p.r(A)p.r(G)p.r(G)p.r(A)p.r(A)p.r(A)p.r(A)p.r(U)p.r(G)p.r(A)p.r(A)p.r(U)p.r(U)p.r(G)p.r(U)p.r(C)p.d(A)p.d(A)}$$$RNA1{StrandType:ss}|RNA2{StrandType:as}$    92.3
RNA1{r(A)p.r(A)p.r(U)p.r(G)p.r(A)p.r(C)p.r(A)p.r(G)p.r(C)p.r(C)p.r(C)p.r(A)p.r(U)p.r(A)p.r(U)p.r(C)p.r(A)p.r(A)p.r(G)p.d(T)p.d(T)}|RNA2{r(C)p.r(U)p.r(U)p.r(G)p.r(A)p.r(U)p.r(A)p.r(U)p.r(G)p.r(G)p.r(G)p.r(C)p.r(U)p.r(G)p.r(U)p.r(C)p.r(A)p.r(U)p.r(U)p.d(A)p.d(G)}$$$RNA1{StrandType:ss}|RNA2{StrandType:as}$    80
RNA1{r(C)p.r(U)p.r(U)p.r(U)p.r(U)p.r(A)p.r(U)p.r(C)p.r(C)p.r(A)p.r(U)p.r(U)p.r(U)p.r(G)p.r(U)p.r(U)p.r(C)p.r(A)p.r(C)p.d(T)p.d(T)}|RNA2{r(G)p.r(U)p.r(G)p.r(A)p.r(A)p.r(C)p.r(A)p.r(A)p.r(A)p.r(U)p.r(G)p.r(G)p.r(A)p.r(U)p.r(A)p.r(A)p.r(A)p.r(A)p.r(G)p.d(A)p.d(A)}$$$RNA1{StrandType:ss}|RNA2{StrandType:as}$    27
RNA1{r(U)p.r(A)p.r(A)p.r(G)p.r(A)p.r(U)p.r(C)p.r(A)p.r(C)p.r(A)p.r(G)p.r(U)p.r(G)p.r(G)p.r(U)p.r(C)p.r(G)p.r(C)p.r(C)p.d(T)p.d(T)}|RNA2{r(G)p.r(G)p.r(C)p.r(G)p.r(A)p.r(C)p.r(C)p.r(A)p.r(C)p.r(U)p.r(G)p.r(U)p.r(G)p.r(A)p.r(U)p.r(C)p.r(U)p.r(U)p.r(A)p.d(G)p.d(A)}$$$RNA1{StrandType:ss}|RNA2{StrandType:as}$    55.6
RNA1{r(A)p.r(U)p.r(U)p.r(A)p.r(U)p.r(G)p.r(G)p.r(G)p.r(A)p.r(C)p.r(C)p.r(U)p.r(A)p.r(A)p.r(U)p.r(G)p.r(A)p.r(C)p.r(A)p.d(T)p.d(T)}|RNA2{r(U)p.r(G)p.r(U)p.r(C)p.r(A)p.r(U)p.r(U)p.r(A)p.r(G)p.r(G)p.r(U)p.r(C)p.r(C)p.r(C)p.r(A)p.r(U)p.r(A)p.r(A)p.r(U)p.d(T)p.d(G)}$$$RNA1{StrandType:ss}|RNA2{StrandType:as}$    64.1
RNA1{r(A)p.r(G)p.r(G)p.r(U)p.r(U)p.r(G)p.r(C)p.r(A)p.r(U)p.r(U)p.r(U)p.r(A)p.r(C)p.r(A)p.r(A)p.r(C)p.r(A)p.r(A)p.r(G)p.d(T)p.d(T)}|RNA2{r(C)p.r(U)p.r(U)p.r(G)p.r(U)p.r(U)p.r(G)p.r(U)p.r(A)p.r(A)p.r(A)p.r(U)p.r(G)p.r(C)p.r(A)p.r(A)p.r(C)p.r(C)p.r(U)p.d(T)p.d(A)}$$$RNA1{StrandType:ss}|RNA2{StrandType:as}$    86.6
RNA1{r(U)p.r(U)p.r(C)p.r(U)p.r(G)p.r(C)p.r(A)p.r(G)p.r(G)p.r(U)p.r(C)p.r(C)p.r(A)p.r(G)p.r(U)p.r(U)p.r(G)p.r(G)p.r(G)p.d(T)p.d(T)}|RNA2{r(C)p.r(C)p.r(C)p.r(A)p.r(A)p.r(C)p.r(U)p.r(G)p.r(G)p.r(A)p.r(C)p.r(C)p.r(U)p.r(G)p.r(C)p.r(A)p.r(G)p.r(A)p.r(A)p.d(C)p.d(A)}$$$RNA1{StrandType:ss}|RNA2{StrandType:as}$    50
RNA1{r(C)p.r(A)p.r(G)p.r(C)p.r(A)p.r(C)p.r(A)p.r(A)p.r(U)p.r(G)p.r(U)p.r(U)p.r(C)p.r(U)p.r(G)p.r(C)p.r(A)p.r(G)p.r(G)p.d(T)p.d(T)}|RNA2{r(C)p.r(C)p.r(U)p.r(G)p.r(C)p.r(A)p.r(G)p.r(A)p.r(A)p.r(C)p.r(A)p.r(U)p.r(U)p.r(G)p.r(U)p.r(G)p.r(C)p.r(U)p.r(G)p.d(G)p.d(A)}$$$RNA1{StrandType:ss}|RNA2{StrandType:as}$    87.8
